- System: Escherichia coli TOP10;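 note: peptides expressed intracellularly from a pBAD plasmid library in pooled LB shake-flask culture, induced with 0.3% L-arabinose, DNA abundance read by NGS, three biological replicates, DESeq2 with apeglm shrinkage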
- Assay info: shrunken log2 fold change of peptide-encoding DNA abundance (4.5 h post-induction vs induction); higher = less antimicrobial activity (less host growth inhibition)
- Assay setup: time post-induction: 4.5 h; library: site-saturation at positions 5, 18, 19, 20
Hi there, I'd appreciate the recorded shrunken log2 fold change for every entry that follows.
Numbers only.

// worked examples, shrunken log2 fold change included
{"columns": ["Input sequence", "shrunken log2 fold change"],
 "data": [
  ["RRIRLRPPRLPRPRPRPYVAPRP", -0.602],
  ["RRIRWRPPRLPRPRPRPECIPRP", 0.872],
  ["RRIRERPPRLPRPRPRPNAQPRP", 0.138]
]}

Consider now this further sequence.
Q: Give reported shrunken log2 fold change value for `RRIRWRPPRLPRPRPRPEGGPRP`
Ans: 0.567
